# melting point listing for each entry below
RECORDED_ENDPOINT: melting point

> print(dat)
                                   compound  reported.result
1  Cc1nccn1CC1CCCN(C(=O)C2CN(C3c4ccc(Cl)cc4CCc4cccnc43)CCN2C(=O)OC2CCCCC2)C1 (single isomer, unassigned) [Example 46]      91 to 94 °C
2  Cc1nccn1CC1CCCN(C(=O)C2CN(C3c4ccc(Cl)cc4CCc4cccnc43)CCN2C(=O)OC(C)C)C1 (single isomer, unassigned) [Example 39]    111 to 125 °C
3  Cc1cn(C[C@@H]2CCCN(C(=O)[C@H]3CN([C@H]4c5ccc(Cl)cc5CCc5cc(Cl)cnc54)CCN3C(=O)OC(C)(C)C)C2)cn1    100 to 116 °C
4  CC(C)OC(=O)N1CCN([C@@H]2c3ccc(Cl)cc3CCc3cc(Br)cnc32)C[C@@H]1C(=O)N1CCC[C@H](Cn2ccnc2)C1    123 to 132 °C
5  CN1CCN(C(=O)C2CN(C3c4ccc(Cl)cc4CCc4cc(Br)cnc43)CCN2C(=O)OC(C)(C)C)CC1Cn1ccnc1 (stereo not drawn)    123 to 134 °C
6  Cc1cn(C[C@H]2CCCN(C(=O)[C@H]3CN([C@@H]4c5ccccc5CCc5cc(Cl)cnc54)CCN3C(=O)OC(C)(C)C)C2)cn1    102 to 118 °C
